All figures here come from patent US20230399341A1.

# assay.system: Human HPK1, catalytic domain (Homo sapiens)
pIC50: −log10 of the molar value.
Our labelling divides records by pIC50 into ranges: low (below 7), moderate (7 to below 10), high (10 or more)

> print(dat)
                                    compound  class.assignment
 1  Cc1c(-c2cc3nc(Nc4cnc5c(c4)CN(C)CC5)ncc3c(N)c2F)cnc2c1NCCO2 [Compound 2-183]              high
 2  COc1nc(C)ccc1Nc1ncc2c(N)c(F)c(-c3cnc4c(c3C)NCCO4)cc2n1 [Compound 2-66]          moderate
 3  Cc1c(-c2cc3nc(Nc4ccc5c(c4)C4CCC5N4C)ncc3c(N)c2F)cnc2c1NCCO2 (stereo not drawn) [Compound 2-121]              high
 4  COc1cc2c(cc1Nc1ncc3ccc(-c4ccc(N)nc4)cc3n1)CNCC2 [Compound 1-27]          moderate
 5  COc1cc2c(cc1Nc1ncc3ccc(NC4CCCOC4)cc3n1)CN(C)CC2 (racemic) [Compound 3-69]               low
 6  COc1cc2c(cc1Nc1ncc3ccc([C@H]4CC[C@H](N)CC4)cc3n1)CN(C)CC2 [Compound 5-1]               low
 7  COc1cc2c(cc1Nc1ncc3ccc(N4CC5CCS(=O)(=O)C5C4)cc3n1)CN(C)CC2 (racemic) [Compound 3-60]               low
 8  COc1cc2c(cc1Nc1ncc3ccc(-c4cc(C#N)ccc4OC)cc3n1)CNCC2 [Compound 1-63]          moderate
 9  COc1cc2c(cc1Nc1ncc3c(N)c(F)c(-c4cc5oc(=O)[nH]c5cc4C)cc3n1)CN(C)CC2 [Compound 2-49]          moderate
10  COc1cc2c(cc1Nc1ncc3c(N)c(F)c(-c4cnc5ncsc5c4)cc3n1)CN(C)CC2 [Compound 2-47]          moderate
11  COc1cc2c(cc1Nc1ncc3ccc(NC4CCN(C(C)=O)CC4)cc3n1)CN(C)CC2 [Compound 3-38]               low
12  CCS(=O)(=O)Cc1ccc(Nc2ncc3cc(F)c(-c4cnc5c(c4C)NCCO5)cc3n2)cc1 [Compound 1-134]              high
13  COc1cc2c(cc1Nc1ncc3ccc(NC4CCCC(O)C4)cc3n1)CN(C)CC2 (racemic) [Compound 3-39]               low
14  COc1cc2c(cc1Nc1ncc3ccc(-c4cccc5c4CNCC5)cc3n1)CN(C)CC2 [Compound 1-9]          moderate
15  CNC(=O)C1(c2ccc(Nc3ncc4c(N)c(F)c(-c5cnc6c(c5C)NCCO6)cc4n3)cc2)CC1 [Compound 2-81]              high

---

Each entry below lists one item and its recorded pIC50 value.
# assay.system: Human HPK1, catalytic domain (Homo sapiens, UniProt Q92918)
# assay.comment: HPK1-SLP76 TR-FRET Assay
# Type: biochemical
# experimental.parameters: 75 pM HPK1, ATP 10 uM, SLP76 10 nM, 30 min pre-incubation, 60 min reaction
pIC50: −log10 of the molar value.
observable: pIC50

> print(dat)
                                    compound  data.value
 1  COc1ccncc1Nc1ncc2c(N)c(F)c(-c3cnc4c(c3C)NCCO4)cc2n1        7.12
 2  Cc1c(-c2c(F)c(N)c3cnc(Nc4ccc(CS(C)(=O)=O)cc4)nc3c2Cl)cnc2c1NCCO2 [Compound 2-91]        8.88
 3  CCS(=O)(=O)Cc1ccc(Nc2ncc3c(N)c(F)c(-c4cnc5c(c4C)NCC(C)O5)cc3n2)c(F)c1 (single isomer, unassigned) [Compound 2-129]        9.34
 4  Cc1c(-c2cc3nc(Nc4cccnc4)ncc3c(N)c2F)cnc2c1NCCO2        9.89
 5  COc1cc2c(cc1Nc1ncc3ccc(-c4cncc(NS(=O)(=O)C(C)C)c4)cc3n1)CNCC2        7.32
 6  Cc1ccncc1-c1cc2nc(Nc3ccc4c(c3)CN(C)CC4)ncc2c(N)c1F        9.66
 7  COc1cc2c(cc1Nc1ncc3ccc(-c4cccc(CO)c4)cc3n1)CNCC2        7.69
 8  COc1cc2c(cc1Nc1ncc3c(N)c(F)c(-c4cnc5c(c4C)NCCO5)c(Cl)c3n1)CN(C)CC2 [Compound 2-94]        8.24
 9  Cc1c(-c2cc3nc(Nc4ccc(C5(S(C)(=O)=O)CC5)cc4)ncc3c(N)c2F)cnc2c1NCCO2       10.08
10  COc1cc2c(cc1Nc1ncc3ccc(-c4cccc(N)c4)cc3n1)CNCC2        7.12
11  Cc1c(-c2c(F)c(N)c3cnc(Nc4ccc5c(c4)CN(C(C)C)CC5)nc3c2Cl)cnc2c1NCCO2 [Compound 2-96]       10.08
12  COc1cc2c(cc1Nc1ncc3c(N)c(F)c(-c4cnc5c(c4C)NCCO5)c(Cl)c3n1)CN(C)CC2 (single isomer, unassigned) [Compound 2-93]       10.67
13  Cc1c(-c2c(F)c(N)c3cnc(Nc4ccc(CS(C)(=O)=O)cc4F)nc3c2Cl)cnc2c1NCCO2 [Compound 2-135]        7.14
14  COc1cc2c(cc1Nc1ncc3c(N)cc(-c4cnc5c(c4C)NCCO5)cc3n1)CN(C)CC2        9.20
15  COc1cc2c(cc1Nc1ncc3c(N)c(F)c(-c4cnc5c(c4C)NCCO5)c(Cl)c3n1)CN(C)CC2(C)C        9.10

---

# assay.system: Human HPK1, catalytic domain (Homo sapiens, UniProt Q92918)
# Sequence (Q92918 1-346): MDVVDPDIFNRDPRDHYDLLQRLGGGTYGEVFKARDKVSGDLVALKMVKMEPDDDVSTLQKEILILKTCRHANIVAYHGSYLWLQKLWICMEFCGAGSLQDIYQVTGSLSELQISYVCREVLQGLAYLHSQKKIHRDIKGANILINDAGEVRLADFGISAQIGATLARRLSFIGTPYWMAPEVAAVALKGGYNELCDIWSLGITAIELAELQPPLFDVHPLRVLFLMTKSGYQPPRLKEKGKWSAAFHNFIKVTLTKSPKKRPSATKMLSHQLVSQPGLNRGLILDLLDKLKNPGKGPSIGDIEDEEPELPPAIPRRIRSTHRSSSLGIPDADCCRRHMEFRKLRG
observable: IC50 (nM)

> print(dat)
                                    compound  data.value
 1  COc1cc2c(cc1Nc1ncc3ccc(-c4cc(S(=O)(=O)N5CCCC5)ccc4C)cc3n1)CNCC2         353
 2  COc1cc(C2CC2)ccc1Nc1ncc2c(N)c(F)c(-c3cnc4c(c3C)NCCO4)cc2n1        17.2
 3  COc1cc2c(cc1Nc1ncc3ccc(NCC4(C)COC4)cc3n1)CN(C)CC2         111
 4  COc1cc2c(cc1Nc1ncc3ccc(NCC4CCS(=O)(=O)C4)cc3n1)CN(C)CC2 (racemic)        73.1
 5  COc1cc2c(cc1Nc1ncc3ccc(-c4cccnc4)cc3n1)CNCC2        8.94
 6  COc1cc2c(cc1Nc1ncc3ccc(Oc4ccc(N5CCN(C(C)=O)CC5)cc4)cc3n1)CN(C)CC2         224
 7  COc1cc2c(cc1Nc1ncc3ccc(-c4ccncc4)cc3n1)CNCC2        59.4
 8  COc1cc2c(cc1Nc1ncc3ccc(-c4cncc(N)c4C)cc3n1)CN(C)CC2        1.52
 9  COc1cc2c(cc1Nc1ncc3ccc(NCc4ccc5c(c4)S(=O)(=O)N=C(C)N5)cc3n1)CN(C)CC2        46.8
10  Cc1c(-c2cc3nc(Nc4cnc5c(c4)CN(C(C)C)CC5)ncc3c(N)c2F)cnc2c1NCCO2      0.0298
11  COc1cc2c(cc1Nc1ncc3ccc(-c4cccc(C(=O)NCCN5CCCC5)c4)cc3n1)CNCC2         222
12  COc1cc2c(cc1Nc1ncc3ccc(-c4ccccc4N4CCOC4=O)cc3n1)CN(C)CC2          27
13  COc1cc2c(cc1Nc1ncc3ccc(-c4cccc(C#N)c4)cc3n1)CNCC2         120
14  COc1cc2c(cc1Nc1ncc3ccc(N4CC5(CCNCC5)OC4=O)cc3n1)CN(C)CC2         205
15  COc1cc2c(cc1Nc1ncc3ccc(-c4cccc(O)c4)cc3n1)CNCC2        36.2
16  COc1cc2c(cc1Nc1ncc3ccc(-c4cnn(C(F)F)c4)cc3n1)CN(C)CC2        10.8
17  COc1ccc(Nc2ncc3c(N)c(F)c(-c4cnc5c(c4C)NCCO5)cc3n2)c(C)n1       0.782
18  COc1cc2c(cc1Nc1ncc3ccc(-c4cncc5[nH]ccc45)cc3n1)CNCC2       0.885
19  COc1cc2c(cc1Nc1ncc3ccc(NCC4(C)CCOC4)cc3n1)CN(C)CC2 (racemic)        90.1
20  Cc1c(-c2cc3nc(Nc4ccc5c(c4)CN(C)CC5)ncc3c(N)c2F)cnc2c1NCC(C)O2 (single isomer, unassigned)      0.0505
21  Cc1ccncc1-c1cc2nc(Nc3ccc(CS(C)(=O)=O)cc3)ncc2c(N)c1F       0.194
22  COc1cc2c(cc1Nc1ncc3ccc(-c4cncc(C(C)(C)O)c4)cc3n1)CN(C)CC2        55.3
23  COc1cc2c(cc1Nc1ncc3ccc(-c4c(C)cccc4F)cc3n1)CN(C)CC2         230
24  COc1nc(C2(C#N)CC2)ccc1Nc1ncc2c(N)c(F)c(-c3cnc4c(c3C)NCCO4)cc2n1        14.3
25  Cc1c(-c2cc3nc(Nc4ccc5c(c4)COCC5)ncc3c(N)c2F)cnc2c1NCCO2      0.0607
26  Cc1c(-c2c(F)c(N)c3cnc(Nc4ccc5c(c4)CN(C)CC5)nc3c2Cl)cnc2c1NCCO2 (single isomer, unassigned) [Compound 2-180]      0.0248
27  COc1cc2c(cc1Nc1ncc3ccc(Nc4cc(C(N)=O)ccn4)cc3n1)CN(C)CC2          10
28  COc1cc2c(cc1Nc1ncc3ccc(-c4cccc(N)c4C)cc3n1)CNCC2         204
29  COc1cc2c(cc1Nc1ncc3c(N)c(F)c(-c4cnc5c(c4C)NCCO5)c(Cl)c3n1)CN(C)CC21CC1 [Compound 2-169]        4.97
30  COc1cc(C(C)S(C)(=O)=O)ccc1Nc1ncc2c(N)c(F)c(-c3cnc4c(c3C)NCCO4)cc2n1 (single isomer, unassigned)        1.62
